- Tested on: OVCAR3 cells
- TEST PROTOCOL: MTT proliferation assay, OVCAR3;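 note: compound given as an 8- or 10-point series, one day after plating, with exposure covering roughly 3-4 cell doublings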
- Format: cell-based
- TEST CONTEXT: 5 days compound exposure, 1:3 serial dilution starting at 10 μM
*1 amine or outer side, *2 acyl side, *3 side chain or, on linkers, in order; H or OH if unused. Where a SMILES comes first, the peptide text is derived from it. Bridges are numbered along the chain shown (N, C = ends). [ ]: non-standard residue; d: D form. The star is where a group is joined. X121 = C[C@@H]1CN(c2ccc(-c3ccc(Cl)cc3C[C@@H](C(=O)[*:2])N(C)[*:1])cc2)CCO1; X18 = CC(=O)N1CCC(=Cc2ccc(Cl)cc2C[C@@H](C(=O)[*:2])N(C)[*:1])CC1; NMehhhLys(Me) = CN([C@@H](CCCCCCCN(C)[*:3])C(=O)[*:2])[*:1]; X168 = Cc1ncc(-c2ccc(Cl)cc2C[C@@H](C(=O)[*:2])N(C)[*:1])o1; X112 = CN([C@@H](Cc1cc(F)ccc1-c1cnn(C)c1)C(=O)[*:2])[*:1]; NMe(hhhLys) = CN([C@@H](CCCCCCCN[*:3])C(=O)[*:2])[*:1]; X152 = CN([C@@H](Cc1cc(Cl)ccc1OC1CC1)C(=O)[*:2])[*:1]; Cyclobutanecarbonyl(1-CF3) = O=C(C1(C(F)(F)F)CCC1)*; cBuCO(3,3-F2-1-CF3) = O=C(C1(C(F)(F)F)CC(F)(F)C1)*; Pro(trans-4-F) = O=C(O)[C@@H]1C[C@@H](F)CN1; Gly(cPr) = N[C@H](C(=O)O)C1CC1
EXPERIMENTAL ENDPOINT: GI50 (nM)

compound="CC(C)C[C@@H]1NC(=O)[C@@H](N(C)C(=O)[C@@H](NC(=O)[C@@H]2C[C@@H](F)CN2C(=O)C2(C(F)(F)F)CC(F)(F)C2)C2CC2)CCCCCCCNC(=O)[C@H](Cc2cc(Cl)ccc2OC2CC2)N(C)C1=O [Example 311] ({cBuCO(3,3-F2-1-CF3)}-[Pro(trans-4-F)][Gly(cPr)][NMe(hhhLys)]L[X152]; lactam 3-C)" result_number=30
compound="CC(=O)N1CCC(=Cc2ccc(Cl)cc2C[C@H]2C(=O)NCCCCCCC[C@H](N(C)C(=O)[C@@H](NC(=O)[C@@H]3C[C@@H](F)CN3C(=O)C3(C(F)(F)F)CC(F)(F)C3)C3CC3)C(=O)N[C@@H](CC(C)C)C(=O)N2C)CC1 [Example 288] ({cBuCO(3,3-F2-1-CF3)}-[Pro(trans-4-F)][Gly(cPr)][NMe(hhhLys)]L[X18]; lactam 3-C)" result_number=20
compound="Cc1ncc(-c2ccc(Cl)cc2C[C@H]2C(=O)N(C)CCCCCCC[C@H](N(C)C(=O)[C@@H](NC(=O)[C@@H]3C[C@@H](F)CN3C(=O)C3(C(F)(F)F)CC(F)(F)C3)C3CC3)C(=O)N[C@@H](CC(C)C)C(=O)N2C)o1 [Example 206] ({cBuCO(3,3-F2-1-CF3)}-[Pro(trans-4-F)][Gly(cPr)][NMehhhLys(Me)]L[X168]; lactam 3-C)" result_number=20
compound="CC(C)C[C@@H]1NC(=O)[C@@H](N(C)C(=O)[C@@H](NC(=O)[C@@H]2C[C@@H](F)CN2C(=O)C2(C(F)(F)F)CC(F)(F)C2)C2CC2)CCCCCCCN(C)C(=O)[C@H](Cc2cc(Cl)ccc2-c2ccc(N3CCO[C@H](C)C3)cc2)N(C)C1=O [Example 414] ({cBuCO(3,3-F2-1-CF3)}-[Pro(trans-4-F)][Gly(cPr)][NMehhhLys(Me)]L[X121]; lactam 3-C)" result_number=10
compound="CC(C)C[C@@H]1NC(=O)[C@@H](N(C)C(=O)[C@@H](NC(=O)[C@@H]2C[C@@H](F)CN2C(=O)C2(C(F)(F)F)CCC2)C2CC2)CCCCCCCN(C)C(=O)[C@H](Cc2cc(F)ccc2-c2cnn(C)c2)N(C)C1=O [Example 69] ({Cyclobutanecarbonyl(1-CF3)}-[Pro(trans-4-F)][Gly(cPr)][NMehhhLys(Me)]L[X112]; lactam 3-C)" result_number=10
compound="CC(=O)N1CC=C(c2ccc(Cl)cc2C[C@H]2C(=O)NCCCC=CCC[C@H](N(C)C(=O)[C@@H](NC(=O)[C@@H]3C[C@@H](F)CN3C(=O)C3(C(F)(F)F)CC(F)(F)C3)C3CC3)C(=O)N[C@@H](CC(C)C)C(=O)N2C)CC1 [Example 267]" result_number=40
